Origin of values: the supplement of paper PMC5579334

System: HS-PSS
run.description: % inhibition of CellTiter-Glo viability at highest tested concentration (72 h), relative to DMSO and benzethonium chloride controls; higher = more inhibition
quantity: % inhibition (%)
Give just the numeric value; % need not be written.

{"molecule": "C[C@]12C=CC(=O)C=C1CC[C@@H]1[C@@H]2C(=O)C[C@@]2(C)[C@H]1CC[C@]2(O)C(=O)CO [Prednisone] (max concentration tested 10000 nM)", "quantity": "% inhibition", "measured.number": 3.03}

Look up % inhibition: COc1cc(Br)c(Nc2nc(-c3c(C)nc4ncccn34)cs2)c(Br)c1 [PTC-209] (max concentration tested 10000 nM) 84.8

Look up % inhibition: COc1ccccc1S(=O)(=O)Nc1ccc2c(c1)CN(C)C(=O)N2 [PFI-1] (max concentration tested 10000 nM) 48.1

###

System: HS-PSS
run.description: relative IC50 (inflection point of fitted dose-response curve, CellTox-Green cytotoxicity, 72 h; top asymptote may be below 50%); higher = less potent
quantity: relative IC50

Hello, I am looking for reported relative IC50 with HS-PSS for CN[C@@H]1C[C@H]2O[C@@](C)([C@@H]1OC)n1c3ccccc3c3c4c(c5c6ccccc6n2c5c31)C(=O)N[C@H]4O . Could you help? 2.13 µM

###

System: YST-1
run.description: relative IC50 (inflection point of fitted dose-response curve, CellTiter-Glo viability, 72 h; top asymptote may be below 50% inhibition); higher = less potent
Please use Y whenever relative IC50 is not below 2 µM, and N whenever it is.

Past entries and their recorded results:
{"smiles.text": "CCCc1cc(C)[nH]c(=O)c1CNC(=O)c1cc(-c2ccnc(N3CCN(C)CC3)c2)cc2c1cnn2C(C)C", "answer.label": "Y"}
{"smiles.text": "CNc1nc(-c2ccc3c(N)n[nH]c3c2)cc(N2C[C@@H](C(=O)NC3CCCCC3)CC[C@H]2C)n1", "answer.label": "N"}

In plain terms: is recorded relative IC50 at least 2 µM for Cc1cc2c(C(C)C)c(O)c(O)c(C=O)c2c(O)c1-c1c(C)cc2c(C(C)C)c(O)c(O)c(C=O)c2c1O ? Y

In plain terms: is recorded relative IC50 at least 2 µM for Cn1nccc1Nc1nccc(-c2ccn([C@H](CO)c3ccc(Cl)c(F)c3)c(=O)c2)n1 ? Y

###

System: HSC1 (primary human Schwann cells)
run.description: % inhibition of CellTiter-Glo viability at highest tested concentration (72 h), relative to DMSO and benzethonium chloride controls; higher = more inhibition
quantity: % inhibition (%)
Give just the numeric value; % need not be written.

Look up % inhibition: O=C(O)CC[C@H]1CC[C@@](c2cc(F)ccc2F)(S(=O)(=O)c2ccc(Cl)cc2)CC1 [MK-0752] (max concentration tested 1000 nM) 13.4

Look up % inhibition: Clc1ccc(C(c2ccccc2Cl)C(Cl)Cl)cc1 (stereo not drawn) [Mitotane] (max concentration tested 10000 nM) 4.91

Look up % inhibition: CNC(=O)c1cc(Oc2ccc(NC(=O)Nc3ccc(Cl)c(C(F)(F)F)c3)cc2)ccn1 [Sorafenib] (max concentration tested 1000 nM) -5.93

###

Test system: S1507-2
run.description: % inhibition of CellTiter-Glo viability at highest tested concentration (72 h), relative to DMSO and benzethonium chloride controls; higher = more inhibition
% inhibition for assorted compounds
Give just the numeric value; % need not be written.

{"compound": "COc1cc(Nc2c(C#N)cnc3cc(OCCCN4CCN(C)CC4)c(OC)cc23)c(Cl)cc1Cl [Bosutinib] (max concentration tested 10000 nM)", "% inhibition / %": 96.4}
{"compound": "O=C(c1ccc(OCCN2CCCCC2)cc1)c1c(-c2ccc(O)cc2)sc2cc(O)ccc12 [Raloxifene] (max concentration tested 10000 nM)", "% inhibition / %": 54.5}

Hello, I am looking for reported % inhibition with S1507-2 for C[C@]12O[C@H](C[C@]1(O)CO)n1c3ccccc3c3c4c(c5c6ccccc6n2c5c31)CNC4=O [Lestaurtinib] (max concentration tested 1000 nM) . Could you help? 76.7

Hello, I am looking for reported % inhibition with S1507-2 for O=C1CN2Cc3c(ccc(Cl)c3Cl)N=C2N1 [Anagrelide] (max concentration tested 10000 nM) . Could you help? -1.32

Hello, I am looking for reported % inhibition with S1507-2 for O=C(O)CC[C@H]1CC[C@@](c2cc(F)ccc2F)(S(=O)(=O)c2ccc(Cl)cc2)CC1 [MK-0752] (max concentration tested 1000 nM) . Could you help? -8.17

Hello, I am looking for reported % inhibition with S1507-2 for C=C1C[C@@H]2[C@H](CC[C@]3(C)C(=O)CC[C@@H]23)[C@@]2(C)C=CC(=O)C=C12 [Exemestane] (max concentration tested 10000 nM) . Could you help? 12

###

Tested on: HSC1 (primary human Schwann cells)
run.description: % inhibition of CellTiter-Glo viability at highest tested concentration (72 h), relative to DMSO and benzethonium chloride controls; higher = more inhibition
quantity: % inhibition (%)
Give just the numeric value; % need not be written.

As a guide, the following entries are already answered.
{"molecule": "N[C@@H](Cc1ccc(N(CCCl)CCCl)cc1)C(=O)O [Melphalan aq] (max concentration tested 12500 nM)", "uom": "%", "% inhibition": 18.7}
{"molecule": "CC(C)C[C@@H](C(=O)N[C@H](C(=O)OC1CCCC1)c1ccccc1)[C@H](O)C(=O)NO [Tosedostat] (max concentration tested 10000 nM)", "uom": "%", "% inhibition": 50.1}
{"molecule": "Cn1cnc2c(F)c(Nc3ccc(Br)cc3Cl)c(C(=O)NOCCO)cc21 [Selumetinib] (max concentration tested 10000 nM)", "uom": "%", "% inhibition": 41.3}

Now look at this entry.
Look up % inhibition: CC(C)C[C@H](NC(=O)[C@H](Cc1ccccc1)NC(=O)c1cnccn1)B(O)O [Bortezomib] (max concentration tested 1000 nM) 101

###

% inhibition for assorted compounds
Test system: YST-1
run.description: % inhibition of CellTiter-Glo viability at highest tested concentration (72 h), relative to DMSO and benzethonium chloride controls; higher = more inhibition
Give just the numeric value; % need not be written.

As a guide, the following entries are already answered.
{"compound": "CNC(=O)c1cccc2cc(Oc3ccnc4cc(OCC5(N)CC5)c(OC)cc34)ccc12 [Lucitanib] (max concentration tested 10000 nM)", "experimental.target": "YST-1", "% inhibition, %": 26.4}
{"compound": "COc1ccc(S(=O)(=O)Nc2cccnc2Nc2ccc(O)cc2)cc1 [ABT-751] (max concentration tested 10000 nM)", "experimental.target": "YST-1", "% inhibition, %": 83.1}
{"compound": "C[C@H](Nc1ncnc2nc[nH]c12)c1cc2cccc(Cl)c2c(=O)n1-c1ccccc1 [Duvelisib] (max concentration tested 500 nM)", "experimental.target": "YST-1", "% inhibition, %": 19.5}
{"compound": "CCCCNc1ncc(C(=O)NCc2ccc(-n3ccnc3)cc2)c(NC2CCC(O)CC2)n1 (stereo unspecified) [UNC2881] (max concentration tested 2500 nM)", "experimental.target": "YST-1", "% inhibition, %": 38.9}
{"compound": "Cc1c(Cn2c(C)nc3c(C(=O)O)cc(N4CCOCC4)cc32)cccc1C(F)(F)F (max concentration tested 10000 nM)", "experimental.target": "YST-1", "% inhibition, %": 4.11}

Now look at this entry.
Look up % inhibition: CCNC(=O)Nc1ccc(-c2nc3c(c(N4CCOC[C@@H]4C)n2)CCN(C2COC2)C3)cc1 [RG-7603] (max concentration tested 2500 nM) 56.2

###

Tested on: HSC1 (primary human Schwann cells)
run.description: % inhibition of CellTiter-Glo viability at highest tested concentration (72 h), relative to DMSO and benzethonium chloride controls; higher = more inhibition
quantity: % inhibition (%)
Give just the numeric value; % need not be written.

As a guide, the following entries are already answered.
{"molecule": "CO[C@H]1C[C@@H]2CC[C@@H](C)[C@@](O)(O2)C(=O)C(=O)N2CCCC[C@H]2C(=O)O[C@H]([C@H](C)C[C@@H]2CC[C@@H](O)[C@H](OC)C2)CC(=O)[C@H](C)/C=C(\\C)[C@@H](O)[C@@H](OC)C(=O)[C@H](C)C[C@H](C)/C=C/C=C/C=C/1C [Sirolimus] (max concentration tested 100 nM)", "% inhibition / %": 24.6}
{"molecule": "COc1ccccc1S(=O)(=O)Nc1ccc2c(c1)CN(C)C(=O)N2 [PFI-1] (max concentration tested 10000 nM)", "% inhibition / %": 62.2}
{"molecule": "CS(=O)(=O)c1ccc(C(=O)Nc2ccc(Cl)c(-c3ccccn3)c2)c(Cl)c1 [Vismodegib] (max concentration tested 10000 nM)", "% inhibition / %": -4.59}
{"molecule": "C#Cc1cccc(Nc2ncnc3cc(OC)c(OCCCCCCC(=O)NO)cc23)c1 [CUDC-101] (max concentration tested 10000 nM)", "% inhibition / %": 102}
{"molecule": "Nc1nc(Cl)nc2c1ncn2[C@H]1C[C@H](O)[C@@H](CO)O1 [Cladribine] (max concentration tested 1000 nM)", "% inhibition / %": 61.2}

Now look at this entry.
Look up % inhibition: COc1cc(Nc2c(C#N)cnc3cc(OCCCN4CCN(C)CC4)c(OC)cc23)c(Cl)cc1Cl [Bosutinib] (max concentration tested 10000 nM) 80
